# System: Saccharomyces cerevisiae;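 further: PSI is a weighted mean of sequencing reads over stability bins, variants kept only with over 10 reads, mCherry proximal and sfGFP distal, peptide attached via GGGS linker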
# experiment: protein stability index of tFT-peptide fusion (C-terminal peptide) (PSI (0-1 scale)); higher = more stable (slower turnover)
# condition_label: genetic background: cdc53-1; temperature: 37 C
The class of a record is decided solely by its measured protein stability index; consult low-valued: < 0.5; mid-valued: ≥ 0.5 and < 0.7; high-valued: ≥ 0.7

macromolecule_sequence: EFFTLYDLVRFI
discrete_label: high-valued
//
macromolecule_sequence: VGKGAGVRDGSR
discrete_label: high-valued
//
macromolecule_sequence: RVCCLSFFFVFL
discrete_label: mid-valued
//
macromolecule_sequence: VFRHFYTFLALC
discrete_label: low-valued
//
macromolecule_sequence: IISPLRLLPLFF
discrete_label: high-valued
//
macromolecule_sequence: GAVVYGICFCTN
discrete_label: mid-valued
//
macromolecule_sequence: LVFFAYLIRGAL
discrete_label: low-valued
//
macromolecule_sequence: RISYKTKINELI
discrete_label: high-valued
//
macromolecule_sequence: VRINLLFVWFSR
discrete_label: low-valued
//
macromolecule_sequence: KQSGLQIKRRKL
discrete_label: high-valued
//
macromolecule_sequence: VTWNFIVYVCCF
discrete_label: low-valued
//
macromolecule_sequence: TCRLIQLTVTLH
discrete_label: low-valued
//
macromolecule_sequence: PLYFSVFSLLFL
discrete_label: mid-valued
//
macromolecule_sequence: FVEFCFWCFWVV
discrete_label: mid-valued
//
macromolecule_sequence: IIPAFPFAFLAF
discrete_label: mid-valued
